# Species: Mus musculus
# test.details: Inhibitory activity against nitric oxide production induced by interferon-gamma (IFN-gamma) in mouse macrophages
# Type: functional
# condition.info: Mus musculus
reported.metric: pIC50
Quick note: pIC50 values are minus log10 of concentrations in mol/L.

> print(dat)
                                   molecule  reported.metric  obs.value
1  CC1(C)CC[C@]2(C(=O)O)CC[C@]3(C)[C@H](C(=O)C=C4[C@@]5(C)C=C(C#N)C(=O)C(C)(C)[C@@H]5CC[C@]43C)[C@@H]2C1 [BARDOXOLONE]            pIC50       9.30
2  CC1(C)C(=O)C(C#N)=C[C@]2(C)C3=CC(=O)C[C@@H](O)[C@]3(C)CC[C@@H]12 (racemic)            pIC50       7.12
3  CC1(C)C(=O)C(C#N)=C[C@]2(C)C3=CC(=O)C(C(N)=O)=C[C@]3(C)CC[C@@H]12 (racemic)            pIC50       7.21

pIC50 for COC(=O)C1=C[C@]2(C)CC[C@H]3C(C)(C)C(=O)C(C#N)=C[C@]3(C)C2=CC1=O (racemic) ?
7.04

Consider next the molecule CC1(C)C(=O)C(C#N)=C[C@]2(C)C3=CC(=O)C(C(=O)O)=C[C@]3(C)CC[C@@H]12 (racemic) in the same way.
5.80

Now this one: CC(=O)O[C@@H]1CC(=O)C=C2[C@@]3(C)C=C(C#N)C(=O)C(C)(C)[C@@H]3CC[C@]21C (racemic)
7.28

For CC(=O)O[C@@H]1CCC=C2[C@@]3(C)C=C(C#N)C(=O)C(C)(C)[C@@H]3CC[C@]21C (racemic) then?
6.32

Field entry: CC1(C)C(=O)C(C#N)=C[C@]2(C)C3=CC(=O)C=C[C@]3(C)CC[C@@H]12 (racemic)
7.21

Same again, this time with CC1(C)C(=O)C(C#N)=C[C@]2(C)C3=CC(=O)C(C#N)=C[C@]3(C)CC[C@@H]12 (racemic)
8.68

And then CC1(C)C(=O)C(C#N)=C[C@]2(C)C3=CCC[C@@H](O)[C@]3(C)CC[C@@H]12 (racemic) , what is it?
6.51

Where do the numbers come from? From ChEMBL document CHEMBL1135447.
